- tested on: human M2 receptor (Homo sapiens, UniProt P08172)
- Construct: expressed in transfected cells; host or cells: CHO-DUKX (CHO-DUKX-M2-GIRK)
- Sequence (P08172 whole entry): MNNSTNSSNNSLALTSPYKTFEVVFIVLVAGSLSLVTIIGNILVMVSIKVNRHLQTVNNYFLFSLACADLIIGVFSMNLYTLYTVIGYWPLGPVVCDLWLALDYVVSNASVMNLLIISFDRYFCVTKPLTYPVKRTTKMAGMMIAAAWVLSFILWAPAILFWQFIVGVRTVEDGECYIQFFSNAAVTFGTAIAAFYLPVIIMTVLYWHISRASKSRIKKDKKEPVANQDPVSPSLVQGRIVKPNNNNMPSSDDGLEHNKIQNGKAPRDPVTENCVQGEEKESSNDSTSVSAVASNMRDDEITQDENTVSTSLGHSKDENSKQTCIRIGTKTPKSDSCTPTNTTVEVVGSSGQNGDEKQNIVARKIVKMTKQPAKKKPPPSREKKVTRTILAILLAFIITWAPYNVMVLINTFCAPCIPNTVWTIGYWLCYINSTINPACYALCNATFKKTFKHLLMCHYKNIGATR
- protocol: Functional M2-GIRK1/4 activation test: allosteric potency (EC50) and efficiency at EC20 acetylcholine
- Type: cell-based
- condition summary: boosting of the acetylcholine effect at EC20 acetylcholine concentration; CHO-DUKX-M2-GIRK cells
Counter-ions that a name gives are not always drawn.
endpoint name: Emax (%)

compound | reported
CC(C)(NC(=O)c1cn(-c2c(F)cc(F)cc2F)c2nc(N3C[C@@H](O)[C@H](O)C3)c(Br)cc2c1=O)C(F)(F)F | 100
O=C(NC(C1CC1)(C1CC1)C(F)(F)F)c1cn(-c2c(F)cc(F)cc2F)c2nc(N3CC(CO)(CO)C3)c(F)cc2c1=O | 100
CC(C)C[C@H](NC(=O)c1cn(-c2c(F)cc(F)cc2F)c2nc(N3CC(O)[C@H](O)C3)c(F)cc2c1=O)C(F)(F)F (stereo in doubt) | 100
CC[C@H](NC(=O)c1cn(-c2c(F)cc(F)cc2F)c2nc(N3C[C@@H](O)[C@H](OC(C)=O)C3)c(F)cc2c1=O)C(F)(F)F | 100
O=C(NC(c1ccccc1Cl)C(F)(F)F)c1cn(-c2c(F)cc(F)cc2F)c2nc(N3C[C@@H](O)[C@H](O)C3)c(F)cc2c1=O (mixture of isomers) | 100
O=C(NCC(F)(F)F)c1cn(-c2c(F)cc(F)cc2F)c2nc(N3C[C@@H](O)[C@H](O)C3)c(F)cc2c1=O | 85
O=C(N[C@@H](C1CC1)C(F)(F)F)c1cn(-c2c(F)cc(F)cc2F)c2nc(N3CC(O)C3)c(F)cc2c1=O | 100
O=C(Nc1c(Cl)cccc1Cl)c1cn(-c2ccc(F)cc2F)c2ncc(Cl)cc2c1=O | 81
CC[C@H](NC(=O)c1cn(-c2c(F)cc(F)cc2F)c2nc(N3CC[C@H](O)C3)c(F)cc2c1=O)C(F)(F)F | 98
CC(C)(NC(=O)c1cn(-c2c(F)cc(F)cc2F)c2nc(N3CC[C@H](O)C3)c(F)cc2c1=O)C(F)(F)F | 97
CC(C)(NC(=O)c1cn(-c2c(F)cc(F)cc2Cl)c2nc(N3C[C@@H](O)[C@H](O)C3)c(F)cc2c1=O)C(F)(F)F [Example 41] | 100
O=C(NC(C(F)(F)F)C(F)(F)F)c1cn(-c2c(F)cc(F)cc2F)c2nc(N3CC4(COC4)C3)c(F)cc2c1=O | 100
CCC(NC(=O)c1cn(-c2c(F)cc(F)cc2F)c2nc(N3C[C@@H](O)[C@H](O)C3)c(F)cc2c1=O)C(C)C (mixture of isomers) [Example 28] | 100
CC(C)(NC(=O)c1cn(-c2c(F)cc(F)cc2F)c2nc(N3C[C@@H](O)[C@@H](O)C3)c(F)cc2c1=O)C(F)(F)F | 100
CC[C@H](NC(=O)c1cn(-c2c(F)cc(F)cc2Cl)c2nc(N3C[C@@H](O)[C@H](O)C3)c(F)cc2c1=O)C(F)(F)F [Example 40] | 98
CC[C@@H](NC(=O)c1cn(-c2c(F)cc(F)cc2F)c2nc(N3C[C@H](O)[C@@H](O)C3)c(F)cc2c1=O)C(F)(F)F | 100
CCC(COC(F)(F)F)NC(=O)c1cn(-c2c(F)cc(F)cc2F)c2nc(N3C[C@@H](O)[C@H](O)C3)c(F)cc2c1=O (stereo partly shown) [Example 26] | 100
CC(NC(=O)c1cn(-c2ncc(F)cc2F)c2nc(N3C[C@@H](O)[C@H](O)C3)c(F)cc2c1=O)C(F)(F)C(F)(F)F (mixture of isomers) | 100
CC(NC(=O)c1cn(-c2c(F)cc(F)cc2F)c2nc(N3C[C@@H](O)[C@@H](O)C3)c(F)cc2c1=O)C(F)(F)C(F)(F)F (single isomer, unassigned) [Example 94] | 100
C[C@H](NC(=O)c1cn(-c2c(F)cc(F)cc2F)c2nc(N3C[C@@H](O)[C@H](O)C3)c(F)cc2c1=O)C1CC1 | 92
O=C(N[C@@H](C1CC1)C(F)(F)F)c1cn(-c2c(F)cc(F)cc2F)c2nc(N3C[C@@H](O)[C@H](O)C3)c(Cl)cc2c1=O | 100
O=C(N[C@@H](C1CC1)C(F)(F)F)c1cn(-c2c(F)cc(F)cc2F)c2nc(N3C[C@@H](O)[C@H](O)C3)c(Br)cc2c1=O | 100
C[C@@H](NC(=O)c1cn(-c2c(F)cc(F)cc2F)c2nc(N3C[C@@H](O)[C@H](O)C3)c(F)cc2c1=O)C(F)(F)F | 91
O=C(N[C@@H](C1CC1)C(F)(F)F)c1cn(-c2c(F)cc(F)cc2Cl)c2nc(N3CC4(COC4)C3)c(F)cc2c1=O [Example 68, trifluoroacetate] | 92
CC1(O)CN(c2nc3c(cc2F)c(=O)c(C(=O)N[C@@H](C2CC2)C(F)(F)F)cn3-c2c(F)cc(F)cc2F)C1 | 100

====

- tested on: human M2 receptor (Homo sapiens)
- protocol: Functional M2-GIRK1/4 activation test: allosteric potency (EC50) and efficiency at EC20 acetylcholine
- condition summary: CHO-DUKX-M2-GIRK cells; voltage-sensitive dye; acetylcholine at EC20; in some cases mean of two or more determinations
endpoint name: EC50 (nM)

1: C[C@H]1CN(c2nc3c(cc2F)c(=O)c(C(=O)N[C@@H](C2CC2)C(F)(F)F)cn3-c2c(F)cc(F)cc2F)CCN1
2: C[C@H](NC(=O)c1cn(-c2c(F)cc(F)cc2F)c2nc(N3C[C@@H](O)[C@H](O)C3)c(F)cc2c1=O)C(F)(F)F
3: CCC(NC(=O)c1cn(-c2c(F)cc(F)cc2F)c2nc(N3C[C@@H](O)[C@H](O)C3)c(F)cc2c1=O)C(C)C (single isomer, unassigned) [Example 30]
Task: Sort the entries above numerically by EC50, high end first. // list labels; follow requested order
Result: 1, 2, 3

P: CC[C@H](NC(=O)c1cn(-c2c(F)cc(F)cc2F)c2nc(N3CCOCC3)c(F)cc2c1=O)C(F)(F)F
Q: CCC(CC)(CC)NC(=O)c1cn(-c2c(F)cc(F)cc2F)c2nc(N3C[C@@H](O)[C@@H](O)C3)c(F)cc2c1=O
Task: Which gives the smaller EC50 number: P or Q ? Identify your pick by its label.
Result: Q
(Q: 1.6 nM, P: 24 nM)

1: CCC(C)(C)NC(=O)c1cn(-c2c(F)cc(F)cc2F)c2nc(N3C[C@@H](O)[C@H](O)C3)c(F)cc2c1=O
2: O=C(NC(C1CC1)C(F)(F)C(F)(F)F)c1cn(-c2c(F)cc(F)cc2F)c2nc(N3CC4(COC4)C3)c(F)cc2c1=O (single isomer, unassigned) [Example 204]
3: CC(C)(NC(=O)c1cn(-c2c(F)cc(F)cc2Cl)c2nc(N3C[C@@H](O)[C@H](O)C3)c(F)cc2c1=O)C(F)F (single isomer, unassigned) [Example 142]
4: CC(NC(=O)c1cn(-c2ncc(F)cc2F)c2nc(N3CC(O)C(O)C3)c(F)cc2c1=O)C(F)(F)C(F)(F)F (single isomer, unassigned) [Example 45]
5: CC(C)(C)C(C)(C)NC(=O)c1cn(-c2c(F)cc(F)cc2F)c2nc(N3C[C@@H](O)[C@H](O)C3)c(F)cc2c1=O
Task: Form: Sort by [EC50] Order [ ascending ] // list labels; follow requested order
Result: 5, 1, 4, 2, 3

1: CCC(COC(F)(F)F)NC(=O)c1cn(-c2c(F)cc(F)cc2F)c2nc(N3C[C@@H](O)[C@H](O)C3)c(F)cc2c1=O (single isomer, unassigned) [Example 32]
2: CC(NC(=O)c1cn(-c2c(F)cc(F)cc2F)c2nc(N3CC[C@H](O)[C@@H]3CO)c(F)cc2c1=O)C(F)(F)C(F)(F)F (single isomer, unassigned)
3: O=C(NC(C(F)(F)F)C(F)(F)F)c1cn(-c2c(F)cc(F)cc2F)c2nc(N3CCC[C@@H]3CO)c(F)cc2c1=O
4: CC(C)(NC(=O)c1cn(-c2c(F)cc(F)cc2F)c2nc(N3C[C@@H](O)[C@H](O)C3)c(Br)cc2c1=O)C(F)(F)F
Task: Could you please sort these 4 entries by EC50 from high to low? // list labels; follow requested order
Result: 2, 3, 4, 1

====

- tested on: human M2 receptor (Homo sapiens)
- protocol: Functional M2-GIRK1/4 activation test: allosteric potency (EC50) and efficiency at EC20 acetylcholine
- condition summary: CHO-DUKX-M2-GIRK cells; voltage-sensitive dye; acetylcholine at EC20; in some cases mean of two or more determinations
endpoint name: EC50 (µM)

Example cases with answers are listed next.
compound | EC50 (µM)
CCC(COC(F)(F)F)NC(=O)c1cn(-c2c(F)cc(F)cc2F)c2nc(N3C[C@@H](O)[C@@H](O)C3)c(F)cc2c1=O (mixture of isomers) [Example 95] | 0.0155
COC[C@H](NC(=O)c1cn(-c2c(F)cc(F)cc2F)c2nc(N3CC[C@H](O)C3)c(F)cc2c1=O)C(C)C | 0.125
CC(NC(=O)c1cn(-c2ncc(F)cc2F)c2nc(N3CC[C@H](O)C3)c(F)cc2c1=O)C(F)(F)C(F)(F)F (mixture of isomers) [Example 127] | 0.013

P: COC(=O)C12CCC(NC(=O)c3cn(-c4c(F)cc(F)cc4F)c4nc(N5C[C@@H](O)[C@H](O)C5)c(F)cc4c3=O)(CC1)C2
Q: CC(C)(NC(=O)c1cn(-c2c(F)cc(F)cc2F)c2nc(N3C[C@@H](O)[C@H](O)C3)c(F)cc2c1=O)C1CC1
R: CC(NC(=O)c1cn(-c2c(F)cc(F)cc2F)c2nc(N3CCCC[C@@H]3CO)c(F)cc2c1=O)C(F)(F)C(F)(F)F (single isomer, unassigned)
Task: Form: Sort by [EC50] Order [ ascending ] // list labels; follow requested order
Result: Q, R, P

a: CCC(NC(=O)c1cn(-c2c(F)cc(F)cc2F)c2nc(N3C[C@@H](O)[C@@H](O)C3)c(F)cc2c1=O)C(C)C (stereo partly drawn) [Example 105]
b: CCC(NC(=O)c1cn(-c2c(F)cc(F)cc2F)c2nc(N3C[C@@H](O)[C@@H](O)C3)c(F)cc2c1=O)C(C)C (mixture of isomers) [Example 104]
c: C[C@@H](NC(=O)c1cn(-c2c(F)cc(F)cc2Cl)c2nc(N3C[C@@H](O)[C@H](O)C3)c(F)cc2c1=O)C(F)(F)F (single isomer, unassigned) [Example 229]
Task: Form: Sort by [EC50] Order [ ascending ] // list labels; follow requested order
Result: a, b, c
(a: 0.0075 µM, b: 0.013 µM, c: 0.26 µM)

1: CC(C)[C@H](C)NC(=O)c1cn(-c2c(F)cc(F)cc2F)c2nc(N3CC[C@H](O)C3)c(F)cc2c1=O
2: CC(NC(=O)c1cn(-c2ncc(F)cc2F)c2nc(N3C[C@@H](O)[C@H](O)C3)c(F)cc2c1=O)C(F)(F)C(F)(F)F (mixture of isomers)
Task: Which gives the smaller EC50 number: 1 or 2 ? Identify your pick by its label.
Result: 1
(1: 0.0087 µM, 2: 0.0205 µM)
